Reference source for all entries: patent US20080021026A1

molecular target: recombinant N-terminal GST-tagged human Rho kinase 2 (ROCK2, amino acids 1-552) (Homo sapiens, UniProt O75116); construct: ROCK2, amino acids 1-552; purchased Invitrogen Inc. PV3759; assay: In vitro Rho kinase assay (luciferase-based ATP consumption), ROCK2; assay type: biochemical; settings: recombinant GST-tagged human ROCK2, luciferase-based ATP consumption; read-out: ROCK2 IC50
Sequence (O75116 1-552): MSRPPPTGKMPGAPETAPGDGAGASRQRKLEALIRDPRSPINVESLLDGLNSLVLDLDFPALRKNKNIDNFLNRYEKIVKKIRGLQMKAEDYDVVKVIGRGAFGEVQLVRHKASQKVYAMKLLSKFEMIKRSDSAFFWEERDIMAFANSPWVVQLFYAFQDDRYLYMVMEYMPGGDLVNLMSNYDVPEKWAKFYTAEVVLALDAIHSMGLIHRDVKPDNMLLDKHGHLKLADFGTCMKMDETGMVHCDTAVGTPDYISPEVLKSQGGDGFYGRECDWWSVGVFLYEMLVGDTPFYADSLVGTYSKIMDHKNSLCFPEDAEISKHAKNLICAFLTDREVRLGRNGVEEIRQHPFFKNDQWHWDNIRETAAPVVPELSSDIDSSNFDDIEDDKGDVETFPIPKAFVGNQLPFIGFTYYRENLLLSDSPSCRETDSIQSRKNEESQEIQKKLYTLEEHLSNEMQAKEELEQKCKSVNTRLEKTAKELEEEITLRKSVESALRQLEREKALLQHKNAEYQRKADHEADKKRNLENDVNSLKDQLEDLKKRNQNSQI
measure-name: IC50

{"compound": "COc1ccc(N2CCN(C(=O)c3ccc4sc(-c5ccnc(N)n5)c(C)c4c3)CC2)cc1OC [Example 570]", "result": "> 5 µM"}
{"compound": "Cc1c(-c2ccnc(N)c2)sc2ccc(Cl)cc12 [Example 7]", "result": "> 5 µM"}
{"compound": "Cc1c(-c2ccnc(N)n2)sc2ccc(C(=O)NCCN)cc12 [Example 336, Cc1c(sc2ccc(cc12)C(═O)NCCN)-c3ccnc(N)n3]", "result": "< 5 µM"}
{"compound": "Cc1c(-c2ccnc(N)n2)sc2ccc(C(=O)N[C@H](CO)Cc3ccccc3)cc12 [Example 422]", "result": "< 5 µM"}
{"compound": "CC(=O)Oc1cccc(Cc2ccc3sc(-c4ccnc(N)n4)c(C)c3c2)c1 [Example 28]", "result": "< 5 µM"}

Looking up Cc1c(-c2ccnc(N)n2)sc2ccc(CNC(=O)c3cccc4ccccc34)cc12 [Example 189] , I found its IC50 recorded as < 5 µM

IC50 reading for Cc1c(-c2ccnc(N)n2)sc2ccc(CNC(=O)C=O)cc12 [Example 96, Cc1c(sc2ccc(CNC(═O)C═O)cc12)-c3ccnc(N)n3] : > 5 µM

// CCN(CC)CCNc1nccc(Nc2ccc3sc(-c4ccnc(N)n4)c(C)c3c2)n1 [Example 77] : IC50 value = < 5 µM

====

target: recombinant N-terminal GST-tagged human Rho kinase 2 (ROCK2, amino acids 1-552) (Homo sapiens, UniProt O75116); construct: ROCK2, amino acids 1-552; purchased Invitrogen Inc. PV3759; assay: In vitro Rho kinase assay (luciferase-based ATP consumption), ROCK2; type: biochemical; settings: recombinant GST-tagged human ROCK2, luciferase-based ATP consumption; read-out: ROCK2 IC50
measure-name: IC50

Given item COc1ccc(OC)c(CCNC(=O)c2ccc3sc(-c4ccnc(N)n4)c(C)c3c2)c1 [Example 449] , the value recorded as its IC50 is < 5 µM

// field: IC50; key: Cc1c(-c2ccnc(N)n2)sc2ccc(CNC(=O)c3cccc(C#N)c3)cc12 [Example 127] ; value = < 5 µM

Consider CC(=O)N[C@H]1CCN(C(=O)c2ccc3sc(-c4ccnc(N)n4)c(C)c3c2)C1 [Example 495] . Its measured IC50 is > 5 µM

Value of IC50 reported for the compound Cc1c(-c2ccnc(N)n2)sc2ccc(C(=O)NC3CCCC3)cc12 [Example 346] is < 5 µM

====

Entries and their IC50
target: recombinant N-terminal GST-tagged human Rho kinase 2 (ROCK2, amino acids 1-552) (Homo sapiens, UniProt O75116); construct: ROCK2, amino acids 1-552; purchased Invitrogen Inc. PV3759; assay: In vitro Rho kinase assay (luciferase-based ATP consumption), ROCK2; assay type: biochemical; details: recombinant GST-tagged human ROCK2, luciferase-based ATP consumption; read-out: ROCK2 IC50

{"molecule": "COc1ccc(N2CCN(C(=O)c3ccc4sc(-c5ccnc(N)n5)c(C)c4c3)CC2)cc1", "result": "< 5 µM"}
{"molecule": "COc1ccc(NC(=O)c2ccc3sc(-c4ccnc(N)n4)c(C)c3c2)cc1OC", "result": "< 5 µM"}

So for CNc1nccc(Nc2ccc3sc(-c4ccnc(N)n4)c(C)c3c2)n1 , the logged IC50 turned out to be < 5 µM

Noted for Cc1c(-c2ccnc(N)n2)sc2ccc(C(=O)NCCCc3ccccc3)cc12 : its IC50 reads < 5 µM

Lab book: IC50 of Cc1c(-c2ccnc(N)n2)sc2ccc(CNC(=O)c3ccc(N(C)C=O)cc3)cc12 noted as < 5 µM

The molecule Cc1c(-c2ccnc(N)n2)sc2ccc(CNC(=O)c3ccc(OC(C)C)cc3)cc12 showed IC50 equal to > 5 µM

Per the records, this molecule ( Cc1c(-c2ccnc(N)n2)sc2ccc(CNC(=O)CCc3cccc(Br)c3)cc12 ) has IC50 equal to < 5 µM

The molecule Cc1c(-c2ccnc(N)n2)sc2ccc(C(=O)NCCc3cccc(Cl)c3)cc12 showed IC50 equal to < 5 µM

Data point: CC(=O)Nc1cccc(Nc2ccc3sc(-c4ccnc(N)n4)c(C)c3c2)c1 ; IC50 = < 5 µM

The molecule CCNC(=O)c1ccc2sc(-c3ccnc(N)n3)c(C)c2c1 showed IC50 equal to < 5 µM

Entry Cc1c(-c2ccnc(N)n2)sc2ccc(C(=O)NCC3(O)CCCCC3)cc12 , IC50 reported as < 5 µM

CCC(CO)NC(=O)c1ccc2sc(-c3ccnc(N)n3)c(C)c2c1 (centres unmarked) has a reported IC50 of < 5 µM

Given item Cc1c(-c2ccnc(N)n2)sc2ccc(CNC(=O)c3cccc(I)c3)cc12 , the value recorded as its IC50 is < 5 µM

GET /value?item= Cc1c(-c2ccnc(N)n2)sc2ccc(CNC(=O)c3ccc4ccccc4c3O)cc12 &field=IC50 returns < 5 µM

Entry Cc1c(-c2ccnc(N)n2)sc2ccc(CNC(=O)c3ccc(O)cc3O)cc12 ; IC50 = < 5 µM

For Cc1ccc(CCNC(=O)c2ccc3sc(-c4ccnc(N)n4)c(C)c3c2)cc1 the molecule record lists IC50 as > 5 µM

For this molecule ( COc1ccccc1N1CCN(C(=O)c2ccc3sc(-c4ccnc(N)n4)c(C)c3c2)CC1 ), measured IC50 is > 5 µM
